- Assayed Target: 5-hydroxytryptamine receptor 4 (Cavia porcellus) (UniProt O70528)
- Sequence (O70528 whole entry): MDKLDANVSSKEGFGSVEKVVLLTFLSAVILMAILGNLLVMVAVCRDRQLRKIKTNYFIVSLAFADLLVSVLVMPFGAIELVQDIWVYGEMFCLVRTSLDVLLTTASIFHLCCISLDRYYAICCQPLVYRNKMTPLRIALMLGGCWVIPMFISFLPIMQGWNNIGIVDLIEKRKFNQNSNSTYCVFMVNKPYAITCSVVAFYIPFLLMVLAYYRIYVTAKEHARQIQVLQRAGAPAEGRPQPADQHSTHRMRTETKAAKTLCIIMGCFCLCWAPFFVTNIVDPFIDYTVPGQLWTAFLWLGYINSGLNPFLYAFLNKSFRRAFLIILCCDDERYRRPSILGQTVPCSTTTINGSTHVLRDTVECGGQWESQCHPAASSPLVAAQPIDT
- Test Details: Displacement of [3H]GR113808 from 5HT4R in guinea pig striatal membranes at 10^-8 M
- Format: cell membranes
- Conditions Used: Striatum, Membrane
Please use true whenever inhibition is not below 60%, and false whenever it is.

Request: Please check the record `Fc1cccc2c1nc(OCC1CCN(CCC(F)(F)F)CC1)c1cccnc12` and state if its inhibition is at or above 60%.
Response: true

Request: Tell me whether inhibition is at least 60% here: `Fc1cccc2c1nc(OCC1CCN(CC(F)F)CC1)c1cccnc12`
Response: false

Request: Is reported inhibition greater than or equal to 60% here: `Fc1cccc2c1nc(OCC1CCN(CC(F)(F)C(F)(F)F)CC1)c1ccccc12`
Response: false

Request: Test whether the compound `Fc1cccc2c1nc(OCC1CCN(CCCC(F)(F)F)CC1)c1cccnc12` records inhibition of 60% or higher.
Response: true

====

- Assayed Target: UniProtKB P28335
- Sequence (P28335 whole entry): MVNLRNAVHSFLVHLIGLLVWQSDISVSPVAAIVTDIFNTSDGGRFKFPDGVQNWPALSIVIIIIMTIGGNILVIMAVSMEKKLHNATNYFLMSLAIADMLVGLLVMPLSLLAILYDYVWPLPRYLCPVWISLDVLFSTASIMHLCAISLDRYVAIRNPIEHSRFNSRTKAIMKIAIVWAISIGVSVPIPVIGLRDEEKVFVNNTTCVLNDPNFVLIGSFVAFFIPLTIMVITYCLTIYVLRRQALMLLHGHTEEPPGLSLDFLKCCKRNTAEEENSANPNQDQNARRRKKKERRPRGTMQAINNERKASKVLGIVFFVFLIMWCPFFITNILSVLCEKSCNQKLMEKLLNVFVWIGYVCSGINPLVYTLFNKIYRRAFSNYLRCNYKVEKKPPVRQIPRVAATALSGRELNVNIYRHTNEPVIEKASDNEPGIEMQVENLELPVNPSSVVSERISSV
Quantity Name: Ki (nM)
# output: bare number, implied unit nM

Request: Kindly indicate its recorded Ki. Item: `Fc1cccc2c1nc(OCC1CCN(CCCC(F)(F)F)CC1)c1cccnc12`
Response: 980

====

- Assayed Target: 5-hydroxytryptamine receptor 2B (Homo sapiens, UniProt P41595)
- Sequence (P41595 whole entry): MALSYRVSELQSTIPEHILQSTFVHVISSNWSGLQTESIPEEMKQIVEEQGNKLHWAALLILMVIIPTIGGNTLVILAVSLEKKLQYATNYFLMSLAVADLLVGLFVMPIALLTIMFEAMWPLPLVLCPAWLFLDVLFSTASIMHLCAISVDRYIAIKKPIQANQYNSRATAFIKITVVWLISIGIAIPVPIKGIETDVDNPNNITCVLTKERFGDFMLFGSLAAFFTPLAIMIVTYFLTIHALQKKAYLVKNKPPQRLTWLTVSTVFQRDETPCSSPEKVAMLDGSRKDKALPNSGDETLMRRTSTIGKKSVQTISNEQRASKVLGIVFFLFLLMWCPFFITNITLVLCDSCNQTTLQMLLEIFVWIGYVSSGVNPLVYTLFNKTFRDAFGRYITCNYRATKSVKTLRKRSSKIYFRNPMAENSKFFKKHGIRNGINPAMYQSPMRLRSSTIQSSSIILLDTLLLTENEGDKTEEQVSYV
Quantity Name: Ki (nM)
Please state the figure in nM; there is no need to write the unit.

Request: Name the recorded Ki of the item `Fc1cccc2c1nc(OCC1CCN(CCC(F)(F)F)CC1)c1cccnc12` in your answer.
Response: 230

====

- Assayed Target: 5-hydroxytryptamine receptor 4 (Cavia porcellus)
- Sequence (O70528 whole entry): as the sequence (O70528 whole entry) above
Quantity Name: pKi
Scale: pKi equals -log10([C]), with [C] in mol/L.

Look over these answered cases.
• Fc1cccc2c1nc(OCC1CCN(CCC(F)(F)F)CC1)c1cccnc12 = 8.05
• Fc1cccc2c1nc(OCC1CCN(CCC(F)(F)F)CC1)c1ccccc12 = 7.66

Consider the additional compound presented here.
Request: Fill in: pKi on 5-hydroxytryptamine receptor 4 (Cavia porcellus), entry `Fc1cccc2c1nc(OCC1CCN(CCCC(F)(F)F)CC1)c1ccccc12`
Response: 7.85

====

- Assayed Target: 5-hydroxytryptamine receptor 1D (Homo sapiens, UniProt P28221)
- Sequence (P28221 whole entry): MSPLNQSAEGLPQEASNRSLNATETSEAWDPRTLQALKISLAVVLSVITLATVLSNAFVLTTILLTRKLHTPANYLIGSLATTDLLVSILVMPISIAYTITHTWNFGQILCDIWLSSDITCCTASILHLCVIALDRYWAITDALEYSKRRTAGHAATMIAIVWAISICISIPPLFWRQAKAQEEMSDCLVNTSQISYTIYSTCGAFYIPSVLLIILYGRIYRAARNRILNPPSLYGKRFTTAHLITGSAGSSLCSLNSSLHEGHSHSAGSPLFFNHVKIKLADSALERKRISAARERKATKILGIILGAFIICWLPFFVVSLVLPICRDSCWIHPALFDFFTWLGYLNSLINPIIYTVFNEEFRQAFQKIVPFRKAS
pKi: −log10 of the molar value.
Quantity Name: pKi

Request: Please report the measured pKi for `Fc1cccc2c1nc(OCC1CCN(CCCC(F)(F)F)CC1)c1cccnc12` tested on 5-hydroxytryptamine receptor 1D (Homo sapiens, UniProt P28221).
Response: < 5.00

====

- Assayed Target: 5-hydroxytryptamine receptor 4 (Cavia porcellus) (UniProt O70528)
- Test Details: Displacement of [3H]GR113808 from 5HT4R in guinea pig striatal membranes at 10^-6 M
- Type: cell membranes
- Conditions Used: Striatum, Membrane
inhibition values, listed per item
Please respond with the number in % and leave the unit unwritten.

Solved entries (count: 3):
* Fc1cccc2c1nc(OCC1CCN(CC(F)(F)C(F)(F)F)CC1)c1ccccc12 | 4
* Fc1cccc2c1nc(OCC1CCN(CC(F)F)CC1)c1cccnc12 | 100
* Fc1cccc2c1nc(OCC1CCN(CCCC(F)(F)F)CC1)c1cccnc12 | 100

Request: Identify measured inhibition corresponding to `Fc1cccc2c1nc(OCC1CCN(CCCC(F)(F)F)CC1)c1ccccc12`
Response: 100

Request: Return inhibition (reported value) for this compound: `FC(F)(F)CN1CCC(COc2nc3ccccc3c3ccccc23)CC1`
Response: 1

Request: Give the reported inhibition for this compound. `Fc1cccc2c1nc(OCC1CCN(CCC(F)(F)F)CC1)c1cccnc12`
Response: 100

====

- Assayed Target: 5-hydroxytryptamine receptor 5A (Homo sapiens, UniProt P47898)
- Sequence (P47898 whole entry): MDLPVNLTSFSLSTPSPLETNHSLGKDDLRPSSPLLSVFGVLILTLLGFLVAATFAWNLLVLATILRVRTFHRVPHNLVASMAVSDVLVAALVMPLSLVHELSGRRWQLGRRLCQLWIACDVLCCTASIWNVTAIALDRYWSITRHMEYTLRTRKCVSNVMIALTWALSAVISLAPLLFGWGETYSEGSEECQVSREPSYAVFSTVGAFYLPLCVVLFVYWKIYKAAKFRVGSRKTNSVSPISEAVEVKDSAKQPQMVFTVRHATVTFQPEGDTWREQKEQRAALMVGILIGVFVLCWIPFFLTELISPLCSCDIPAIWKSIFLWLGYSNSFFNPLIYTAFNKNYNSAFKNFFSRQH
pKi: −log10 of the molar value.
Quantity Name: pKi

Request: Return reported pKi. Input molecule: `Fc1cccc2c1nc(OCC1CCN(CCCC(F)(F)F)CC1)c1cccnc12`
Response: < 5.00

====

- Assayed Target: 5-hydroxytryptamine receptor 4 (Cavia porcellus) (UniProt O70528)
- Test Details: Displacement of [3H]GR113808 from 5HT4R in guinea pig striatal membranes at 10^-6 M
- Type: cell membranes
- Conditions Used: Striatum, Membrane
Below is a list of entries, each paired with its recorded inhibition value.
Form entry: value (%) — number only.

Request: Report value: inhibition, system: 5-hydroxytryptamine receptor 4 (Cavia porcellus) (UniProt O70528), compound: `FC(F)(F)C(F)(F)CN1CCC(COc2nc3ccccc3c3ccccc23)CC1`
Response: 1

Request: State inhibition (5-hydroxytryptamine receptor 4 (Cavia porcellus) (UniProt O70528)) of `FC(F)CN1CCC(COc2nc3ccccc3c3ccccc23)CC1` .
Response: 58

Request: Write inhibition of `Fc1cccc2c1nc(OCC1CCN(CCC(F)(F)F)CC1)c1ccccc12` ; system used: 5-hydroxytryptamine receptor 4 (Cavia porcellus) (UniProt O70528)
Response: 100

Request: GET inhibition where system = 5-hydroxytryptamine receptor 4 (Cavia porcellus) (UniProt O70528) and item = `Fc1cccc2c1nc(OCC1CCN(CC(F)F)CC1)c1ccccc12`
Response: 93

Request: Report value only: inhibition, 5-hydroxytryptamine receptor 4 (Cavia porcellus) (UniProt O70528), `Fc1cccc2c1nc(OCC1CCN(CC(F)(F)F)CC1)c1ccccc12`
Response: 3

====

Target chain: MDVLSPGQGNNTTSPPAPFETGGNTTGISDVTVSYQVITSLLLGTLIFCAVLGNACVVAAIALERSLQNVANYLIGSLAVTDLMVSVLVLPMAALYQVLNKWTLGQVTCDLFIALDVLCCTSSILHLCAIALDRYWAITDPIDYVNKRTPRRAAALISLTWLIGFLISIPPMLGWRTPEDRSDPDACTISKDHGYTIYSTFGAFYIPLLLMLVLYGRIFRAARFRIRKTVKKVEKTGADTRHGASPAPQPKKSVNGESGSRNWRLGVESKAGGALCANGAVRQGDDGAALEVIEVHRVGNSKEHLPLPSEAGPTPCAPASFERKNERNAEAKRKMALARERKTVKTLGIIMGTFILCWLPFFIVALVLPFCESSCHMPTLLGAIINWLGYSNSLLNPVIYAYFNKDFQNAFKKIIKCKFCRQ
pKi: −log10 of the molar value.
Quantity Name: pKi

Request: Complete the entry with pKi for `Fc1cccc2c1nc(OCC1CCN(CCCC(F)(F)F)CC1)c1cccnc12`
Response: < 5.00

====

- Assayed Target: 5-hydroxytryptamine receptor 4 (Cavia porcellus)
- Test Details: Displacement of [3H]GR113808 from 5HT4R in guinea pig striatal membranes at 10^-8 M
- Assay type: cell membranes
- Conditions Used: Striatum, Membrane
Quantity Name: inhibition (%)
Respond numerically; units are % and should not be typed.

Consider the reported inhibition for these compounds:
• FC(F)CN1CCC(COc2nc3ccccc3c3ccccc23)CC1 = 0
• FC(F)(F)CN1CCC(COc2nc3ccccc3c3ccccc23)CC1 = 0
• Fc1cccc2c1nc(OCC1CCN(CCC(F)(F)F)CC1)c1ccccc12 = 61
• CCCN1CCC(COc2nc3c(F)cccc3c3ncccc23)CC1 = 94
• Fc1cccc2c1nc(OCC1CCN(CC(F)F)CC1)c1ccccc12 = 0
• Fc1cccc2c1nc(OCC1CCN(CC(F)(F)F)CC1)c1ccccc12 = 0
• Fc1cccc2c1nc(OCC1CCN(CCCC(F)(F)F)CC1)c1ccccc12 = 49

Could you now look at the following compound, please?
Request: Return inhibition for the following compound: `FC(F)(F)C(F)(F)CN1CCC(COc2nc3ccccc3c3ccccc23)CC1`
Response: 0
